Kindly supply the reported inhibition values for the records listed here.
# experimental.details: yeast NALP1 reporter signal suppression – S. cerevisiae, luminescence, single concentration, NALP1 inhibitor project, confirmation (AID 488841);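 further: plate controls were DMSO in galactose medium for no effect and cells in plain SD medium for full effect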
# settings: S. cerevisiae NALP1/ASC/Caspase-1 reporter, beta-gal luminescence; at 10 µM; hits give high values
The whole screen tested about 1,400 compounds, of which about 380 (27%) were called active. This is one part of the list.
Answers are plain numbers, in %.

Examples from the recorded data:
compound	observed.property	recorded.measurement
Cc1ccc(C(=O)/C=C/c2cn(CC(O)CN3CCOCC3)c3ccccc23)cc1 (centres undefined)	inhibition	39.7
CC1CCCN(CCOCCSc2ccccc2)C1 (centres undefined)	inhibition	39.5
CC1CN(C(=O)Nc2ccc3c(c2)OCO3)CC(C)O1 (centres undefined)	inhibition	30.4

Next:
Ask | Tell me the measured inhibition of `CN1CCN(C2=C(Cl)C(=O)C(c3cnc(N4CCCCC4)s3)=C(Cl)C2=O)CC1` , please.
Reply | 29.9
